Data origin: ChEMBL document CHEMBL4837188

- target: Amine oxidase [flavin-containing] B (Homo sapiens)
- Sequence (P27338 whole entry): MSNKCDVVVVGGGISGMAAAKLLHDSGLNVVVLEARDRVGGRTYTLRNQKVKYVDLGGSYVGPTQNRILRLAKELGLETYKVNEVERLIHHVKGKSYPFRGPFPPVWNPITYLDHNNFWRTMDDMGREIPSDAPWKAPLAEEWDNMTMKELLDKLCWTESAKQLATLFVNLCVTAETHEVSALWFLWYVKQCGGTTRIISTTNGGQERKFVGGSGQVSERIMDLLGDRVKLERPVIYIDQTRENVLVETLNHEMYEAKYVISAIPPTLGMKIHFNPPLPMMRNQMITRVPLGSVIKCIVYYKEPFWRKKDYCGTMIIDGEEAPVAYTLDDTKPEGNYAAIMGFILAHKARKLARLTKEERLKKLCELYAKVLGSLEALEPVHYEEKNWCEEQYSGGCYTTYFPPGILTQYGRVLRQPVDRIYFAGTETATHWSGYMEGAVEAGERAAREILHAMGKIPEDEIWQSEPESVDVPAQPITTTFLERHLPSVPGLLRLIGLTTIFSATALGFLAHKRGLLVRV

smiles	target	IC50 / µM
CC(=O)NC[C@@H]1OC(=O)N2Cc3cc(-c4ccc(C#N)nc4)c(F)cc3O[C@@H]12	Amine oxidase [flavin-containing] B (Homo sapiens)	6.07
